test system: ovariectomized rats (uterus); experiment: Uterine weight in ovariectomized (OVX) rats, 4-day oral dosing; type: in vivo, female Sprague Dawley rats; conditions: OVX rats, 1.0 mg/kg daily for 4 days
Structures can show the parent of a compound that is named as a salt.
Hi! Just check whether Uterine Weight (% increase vs. OVX) is below 20%. Below gives 1.0, equal or above gives 0.0.

[ask] I wonder whether Oc1ccc2c(Cc3ccc(OCCN4CCCCC4)cc3)c([C@H]3CC[C@H](O)CC3)ccc2c1 [Example 2, hydrochloride] has Uterine Weight (% increase vs. OVX) below 20%. Can you tell?
[reply] 1.0

[ask] I wonder whether Oc1ccc2c(Cc3ccc(OCCN4CCCCC4)cc3)c(C3CCCCC3)ccc2c1 [Example 6, hydrochloride] has Uterine Weight (% increase vs. OVX) below 20%. Can you tell?
[reply] 0.0

[ask] I wonder whether CCc1ccc2cc(O)ccc2c1Cc1ccc(OCCN2CCCCC2)cc1 has Uterine Weight (% increase vs. OVX) below 20%. Can you tell?
[reply] 1.0

[ask] I wonder whether COc1ccc2c(Cc3ccc(OCCN4CCCCC4)cc3)c(C3CCCCC3)ccc2c1 has Uterine Weight (% increase vs. OVX) below 20%. Can you tell?
[reply] 1.0

[ask] I wonder whether COc1ccc2c(c1)CCC(C1CCCCC1)=C2C(=O)c1ccc(OCCN2CCCCC2)cc1 has Uterine Weight (% increase vs. OVX) below 20%. Can you tell?
[reply] 0.0

The origin of these recorded values is patent US5811421A.
